Tested on: COLO 205 colon
Experiment: NCI-60 one-dose screen, 48 h
Conditions: 10 µM unless noted
About 83,000 compounds went through this panel and 20% of them were active in at least one assay; those are over-represented in the sample as a whole. Activity calls are given as the source filed them. Rule for the calls: active = growth percent below 10; inactive = the rest.
Respond using exactly one of the listed classes: active, inactive

Could you check what this test reported for CC(C)[C@H]1COC(=O)N1[C@@H]1C(=O)N([C@@H](CCC(=O)N2CCN(C3CCCC3)CC2)C(=O)N[C@@H]2CCCc3ccccc32)[C@@H]1/C=C/c1cccc(Cl)c1 ? inactive

Could you check what this test reported for COc1ccc2nc3ccccc3c(NCCNCCO)c2c1 ? active

Could you check what this test reported for Nc1cc(C(=O)O)[nH]c(=S)n1 ? inactive

###

Test system: HCT-116 colon
Assay: NCI-60 one-dose screen, 48 h
Settings: 10 µM unless noted
Compounds without any hit were thinned out: in the full panel of roughly 83,000, 20% have a hit. Activity calls are given as the source filed them. Rule for the calls: active = growth percent below 10; inactive = the rest.
Respond using exactly one of the listed classes: True for active, False for inactive

1. COc1c(B(O)O)cccc1-c1nc2ccc3[nH]ncc3c2c2c1CCC2 = False
2. CC1(C)NCCC[C@]2(C)[C@H]3C=CC4=C5C[C@](C)(CO)CC[C@]5(C)CC[C@@]4(C)[C@]3(C)CC[C@@H]12 = True
3. COc1c(C(C)=O)c(OCCCCOc2c(C(C)=O)c(OC)c3ccoc3c2OC)c(OC)c2occc12 = False

Could you check what this test reported for COC(=O)[C@H](CC(C)C)NC(=O)NC(=O)NC(=O)CI ? False

Could you check what this test reported for O=C(CCN1CCCCC1)c1ccc2ccccc2c1 ? False

Could you check what this test reported for ClC1=C(Cl)C(Cl)=C(Cl)C1=Cc1ccccc1 ? True

Could you check what this test reported for CCOC(=O)Nc1ccc2c(c1)/C(=N\NC(=S)NC)c1ccccc1-2 ? False

Could you check what this test reported for Nc1cc(NN=C(c2ccc(O)cc2)c2ccc(O)cc2)c([N+](=O)[O-])cc1[N+](=O)[O-] ? True

Could you check what this test reported for COc1cc(OC)cc(C(=O)Nc2cc(-c3cccnc3)nc(NCCCN3CCOCC3)n2)c1 ? False

###

Tested on: SF-295 CNS
Test: NCI-60 one-dose screen, 48 h
Settings: 10 µM unless noted
Compounds without any hit were thinned out: in the full panel of roughly 83,000, 20% have a hit. Active and inactive are the calls of the source. Rule for the calls: active = growth percent below 10; inactive = the rest.
Respond using exactly one of the listed classes: 1 for active, -1 for inactive

Could you check what this test reported for CCOC(=O)C(C(C)=O)c1nc2sc3cc(Cl)c(Cl)cc3n2c(=O)c1C#N (stereo not drawn) ? -1

Could you check what this test reported for COc1c(C(C)=O)c(OCCCCOc2c(C(C)=O)c(OC)c3ccoc3c2OC)c(OC)c2occc12 ? -1

Could you check what this test reported for CCOC(=O)c1nn(C2CCCCO2)c2ccc(NC(=O)Cn3nnc4ccccc43)cc12 (stereo not drawn) ? -1

Could you check what this test reported for O=C1COCCN1c1ccc(NCc2cn(Cc3cccc4ccccc34)c3ccccc23)cc1 ? -1

###

System: ACHN renal
Assay: NCI-60 one-dose screen, 48 h (100 = growth as untreated, 0 = no growth, -100 = all killed)
Conditions: 10 µM unless noted
The panel holds about 83,000 compounds, 20% with a hit somewhere; the sample as a whole holds those more often. Activity calls are given as the source filed them. How the source made its calls: active means growth percent below 10; inactive means the rest.
endpoint name: growth

1. Cc1cnc([C@]23CC[C@@H](C)[C@H](C)[C@H]2C2=CC[C@@H]4[C@@]5(C)Cc6c([nH]c7ccccc67)C(C)(C)[C@@H]5CC[C@@]4(C)[C@]2(C)CC3)o1 = 42.7% [100 µM] (inactive)
2. O=C1C(Cl)=C(Nc2ccc3cn[nH]c3c2)C(=O)c2ccccc21 = 41.1% (inactive)
3. Clc1ccc(/C=N/Nc2nc3ccccc3s2)c(Cl)c1 = 82.8% (inactive)
4. O=C(Nc1ccc(Cl)c(C(F)(F)F)c1)Nc1ccc(-c2cccnc2)cc1N1CCC(CO)CC1 = 17.3% (inactive)
5. CCOC(=O)c1sc2nc(-c3cc(OC)c(OC)c(OC)c3)nc(N3CCOCC3)c2c1C = 33.6% (inactive)

ACHN renal growth of O=C(CSc1nc2ccc([N+](=O)[O-])cc2[nH]1)Nc1cccc(Cl)c1 is 22.5% (inactive)

ACHN renal growth of COc1cc2c(c(Br)c1N)-c1cc(Br)c(N)cc1C2=O is 57.6% (inactive)

ACHN renal growth of CCN(CC)CCSC(=O)C(O)(c1ccccc1)C1CCCC1 (centres undefined) is 105% (inactive)

ACHN renal growth of COc1ccc(/C=C2\N=C(Nc3ccccc3)N(NC(=O)c3ccccn3)C2=O)cc1 is 99.4% (inactive)

ACHN renal growth of COc1cc(/C=C/C(=O)/C=C/c2ccc(-n3ccnc3C)cc2)ccc1O is 58.8% (inactive)

ACHN renal growth of CCOC(=O)COc1c(C)cc(SSc2cc(C)c(OCC(=O)OCC)c(C)c2)cc1C is 107% (inactive)

ACHN renal growth of CC(C)CCSc1nc(N)nc2nc[nH]c12 is 91.5% (inactive)

ACHN renal growth of C=C(C)C1CCC2(C(=O)O)CCC3(C)C(CCC4C5(C)CCC(OC(=O)NCc6ccccc6)C(C)(C)C5CCC43C)C12 (centres undefined) is 30.3% (inactive)

ACHN renal growth of C[C@@H](NC(=O)[C@@H](CC(=O)N1CCC(N2CCCCC2)CC1)N1C(=O)[C@@H](N2C(=O)OC[C@@H]2c2ccccc2)[C@H]1/C=C/c1cccc(Cl)c1)c1ccccc1 is 91.6% (inactive)

###

Test system: SK-MEL-5 melanoma
Test: NCI-60 one-dose screen, 48 h
Conditions: 10 µM unless noted
About 83,000 compounds went through this panel and 20% of them were active in at least one assay; those are over-represented in the sample as a whole. Active and inactive are the calls of the source. Rule for the calls: active = growth percent below 10; inactive = the rest.
Respond using exactly one of the listed classes: 1 (yes) = active, 0 (no) = inactive

The examples below pair each entry with its known result.
1. CCCCNC(=O)NS(=O)(=O)Cc1ccccc1 = 0 (no)
2. Cn1cc(-c2nnc(-c3cn(C)c4ncccc34)s2)c2ccccc21 = 0 (no)
3. O=c1cc(-c2ccccc2)oc2c(O)c(O)ccc12 = 0 (no)

Pending compound:
Could you check what this test reported for C[C@]12CCc3nc(Nc4ccccc4)sc3C1=CC[C@@H]1[C@@H]2CC[C@]2(C)/C(=N/NC(N)=S)CC[C@@H]12 ? 0 (no)

###

# growth per entry
System: NCI-H322M lung
Assay: NCI-60 one-dose screen, 48 h (100 = growth as untreated, 0 = no growth, -100 = all killed)
Conditions: 10 µM unless noted
About 83,000 compounds went through this panel and 20% of them were active in at least one assay; those are over-represented in the sample as a whole. The source made the active and inactive calls. How the source made its calls: active means growth percent below 10; inactive means the rest.

// known answers, use as guide
1) Cn1cc(-c2noc(-c3cn(C)c4ncc(F)cc34)n2)c2cc(Cl)ccc21 = 50.3% (inactive)
2) CCC(Br)(CC)C(=O)c1ccc(OCC(=O)O)c(Cl)c1Cl = 112% (inactive)
3) O=C(N/N=C\c1cc(Cl)ccc1O)N/N=C/c1cc(Cl)ccc1O = 74.7% (inactive)
4) Nc1nc(N)c2c(n1)NC(c1ccc(F)cc1)C1CCc3ccccc3C1=N2 (configuration not stated) = 67.3% (inactive)
5) C#CCNC(=O)CC[C@]1(C)[C@H]2CC[C@@H]3[C@@H]([C@@](C)(O)CCC=C(C)C)CC[C@@]3(C)[C@]2(C)CC[C@H]1C(=C)C = 75.7% [100 µM] (inactive)
6) COc1ccc2c3ccnc(C(F)(F)F)c3n(CCCCN)c2c1 = 65.3% (inactive)
7) O=C(O)c1cc([N+](=O)[O-])ccc1Br = 94.1% (inactive)
8) Cc1cc(NN=C(c2ccc(O)cc2)c2ccc(O)cc2)c([N+](=O)[O-])cc1[N+](=O)[O-] = 59.1% (inactive)

Measured growth, CC(C)c1ccc(C(=O)Nc2nc3ccc(O)cc3s2)cc1 : 62.2% (inactive)

Measured growth, Oc1cc(Nc2ccnc3cc(Cl)ccc23)c2ncccc2c1 : 99.7% (inactive)

Measured growth, Cc1cccc(C[C@H](NC(=O)Nc2ccc(Cl)cc2F)C(=O)N[C@@H]2C(=O)N3C[C@H](OC(=O)CCN(C)C)C[C@H]3C(=O)N3CCCC[C@H]3C(=O)N[C@@H](C)C(=O)N3C[C@H](C)C[C@H]3C(=O)O[C@H]2C)c1 : 59.2% (inactive)

Measured growth, COc1cc2c(c(Br)c1N)-c1cc(Br)c(N)cc1C2=O : 71.2% (inactive)

Measured growth, C=C(CC(=O)OC)C(C)=O : 119% (inactive)

Measured growth, COc1ccc(C(=O)CSc2nccc(Nc3ccc(C(=O)O)cc3)n2)cc1 : 106% (inactive)

Measured growth, O=C(Nc1ccc(CN2CCOCC2)c(C(F)(F)F)c1)c1nc2ccc3[nH]ncc3c2c2c1CCCC2 : 102% (inactive)

Measured growth, CC(C)(C)c1cc(C(=O)N2CCC(C(=O)NCCN)CC2)cc(C(C)(C)C)c1 : 93.6% (inactive)
